pIC50 values recorded for Human Factor D (Homo sapiens (Human), UniProt P00746)
pIC50: −log10 of the molar value.

// assay Human Factor D (Homo sapiens (Human), UniProt P00746), entry Cc1ncc(-c2cc3c4c(c2)c(C(N)=O)nn4CC(=O)N2[C@H](C(=O)Nc4nc(C(F)(F)F)ccc4C)C[C@@]4(COCCCCCCC3)C[C@@H]24)cn1 [Compound T-187] , pIC50 value = > 6.00

// assay Human Factor D (Homo sapiens (Human), UniProt P00746), entry CC(=O)c1nn2c3c(nc(-c4cnc(C)nc4)cc13)CCCCCCC(=O)NC[C@@]13C[C@@H](C(=O)Nc4nc(C(F)(F)F)ccc4C)N(C(=O)C2)[C@@H]1C3 [Compound T-132] , pIC50 value = > 6.00

// assay Human Factor D (Homo sapiens (Human), UniProt P00746), entry CC(=O)c1nn2c3c(cc(-c4cnc(C)nc4)cc13)CCCCCC(=O)N(C)C[C@@]13C[C@@H](C(=O)Nc4nc(C(F)(F)F)ccc4C)N(C(=O)C2)[C@@H]1C3 [Compound T-125] , pIC50 value = > 6.00

###

IC50 values recorded for UniProt:P00746

molecule	obs.value
CC(=O)c1nn(CC(=O)N2[C@H]3C[C@@]4(CNC(=O)C(F)(F)CCCCOCc5ccc(Br)nc5NC3=O)C[C@@H]24)c2cnc(-c3cnc(C)nc3)cc12	< 1 µM
CC(=O)c1nn(CC(=O)N2C[C@@]3(F)CNC(=O)C(C)(C)CCCCOCc4ccc(Br)nc4NC(=O)[C@@H]2C3)c2ccc(-c3cnc(C)nc3)cc12	< 1 µM

Proceeding to the next molecule to report its IC50.
// assay UniProt:P00746, entry CC(=O)c1nn(CC(=O)N2C3CC34CNC(=O)CCC=CCOCc3ccc(Br)nc3NC(=O)[C@@H]2C4)c2ccc(-c3cnc(C)nc3)cc12 (stereo partly drawn) , IC50 value = < 1 µM

###

IC50 values recorded for Human Factor D (Homo sapiens (Human), UniProt P00746)

Per the record, CC(=O)c1nn(CC(=O)N2[C@H]3C[C@@]4(COCCCCCCc5ccc(Br)nc5NC3=O)C[C@@H]24)c2ccc(-c3cnc(C)nc3)cc12 [Compound T-39] has IC50 of < 1000 nM

Per the record, CC(=O)c1nn(CC(=O)N2[C@H]3C[C@]4(C[C@@H]24)CN(C)CC=CCOCc2ccc(Br)nc2NC3=O)c2ccc(-c3cnc(C)nc3)cc12 [Compound T-6] has IC50 of < 1000 nM

Per the record, CC(=O)c1nn2c3c(cc(-c4cnc(C)nc4)cc13)CCCCCC(=O)NC[C@]1(F)C[C@@H](C(=O)Nc3nc(C(F)(F)F)ccc3C)N(C1)C(=O)C2 [Compound T-129] has IC50 of 1000 to 10000 nM

Per the record, CC(=O)c1nn2c3cc(c(-c4cnc(C)nc4)cc13)OCCC/C=C/COC[C@@]13C[C@@H](C(=O)Nc4nc(Br)ccc4C)N(C(=O)C2)[C@@H]1C3 [Compound T-79] has IC50 of < 1000 nM

Per the record, CC(=O)c1nn2c3c(cc(-c4cnc(C)nc4)cc13)CCCCCCC(=O)NC[C@@]13C[C@@H](C(=O)N[C@@H](C)c4cccc(Cl)c4F)N(C(=O)C2)[C@@H]1C3 [Compound T-232] has IC50 of < 1000 nM

###

IC50 values recorded for Human Factor D (Homo sapiens (Human))

Take a look at these entries with their results.
compound	IC50
CC(=O)c1nn2c3c(cc(-c4cnc(C)nc4)cc13)CCCCCCC(=O)NC[C@@]13C[C@@H](C(=O)Nc4nc(Br)c(F)cc4C)N(C(=O)C2)[C@@H]1C3 [Compound T-85]	< 1 µM
CC(=O)c1nn2c3c(cc(-c4cnc(C)nc4)cc13)CCCCCCC(=O)NC[C@@]13C[C@@H](C(=O)N[C@H](C)CC(C)(C)C)N(C(=O)C2)[C@@H]1C3 [Compound T-231]	< 1 µM
CC(=O)c1nn(CC(=O)N2[C@H]3C[C@@]4(CNC(=O)C(C)(C)CCCOCc5ccc(C(F)(F)F)nc5NC3=O)C[C@@H]24)c2ccc(-c3cnc(C)nc3)cc12 [Compound T-236]	< 1 µM
CC(=O)c1nn(CC(=O)N2[C@H]3C[C@]4(C[C@@H]24)Cn2cc(nn2)COCc2ccc(Br)nc2NC3=O)c2ccc(-c3cnc(C)nc3)cc12 [Compound T-18]	< 1 µM

Proceeding to the next compound to report its IC50.
Per the record, CC(=O)c1nn2c3c(cc(-c4cnc(C)nc4)cc13)CCCCCCCCCC[C@@]13C[C@@H](C(=O)Nc4nc(Br)ccc4C)N(C(=O)C2)[C@@H]1C3 [Compound T-109] has IC50 of < 1 µM

###

IC50 values recorded for Human Factor D (Homo sapiens (Human), UniProt P00746)

Take a look at these entries with their results.
compound	IC50
Cc1ncc(-c2cc3c(C#N)nn4c3c(n2)CCCCCCOC[C@@]23C[C@@H](C(=O)Nc5nc(C(F)(F)F)ccc5C)N(C(=O)C4)[C@@H]2C3)cn1 [Compound T-155]	< 1000 nM
CC(=O)c1nn2c3c(cc(-c4cnc(C)nc4)cc13)CCCCC[C@@H](C)C(=O)N(C)C[C@@]13C[C@@H](C(=O)Nc4nc(C(F)(F)F)ccc4C)N(C(=O)C2)[C@@H]1C3 [Compound T-205]	< 1000 nM
CC(=O)c1nn2c3c(cc(-c4cnc(C)nc4)cc13)CCCCCCCN(C)C[C@@]13C[C@@H](C(=O)Nc4nc(Br)ccc4C)N(C(=O)C2)[C@@H]1C3 [Compound T-122]	1000 to 10000 nM

Per the record, CC(=O)c1nn2c3c(cc(-c4cnc(C)nc4)cc13)CCCCCCC(=O)NC[C@@]13C[C@@H](C(=O)Nc4nc(Br)ccc4C4CC4)N(C(=O)C2)[C@@H]1C3 [Compound T-212] has IC50 of < 1000 nM

Per the record, CC(=O)c1nn2c3c(cc(-c4cnc(C)nc4)cc13)CCCCNC(=O)NC[C@@]13C[C@@H](C(=O)Nc4nc(C(F)(F)F)ccc4C)N(C(=O)C2)[C@@H]1C3 [Compound T-237] has IC50 of < 1000 nM

Per the record, CC(=O)c1nn(CC(=O)N2[C@H]3C[C@]4(C[C@@H]24)CN(C)CCCCC=Cc2ccc(Br)nc2NC3=O)c2ccc(-c3cnc(C)nc3)cc12 [Compound T-8] has IC50 of < 1000 nM

Per the record, CC(=O)c1nn(CC(=O)N2[C@H]3C[C@@]4(C=CCCCCCCc5ccc(Br)nc5NC3=O)C[C@@H]24)c2cnc(-c3cnc(C)nc3)cc12 [Compound T-43] has IC50 of < 1000 nM

Per the record, CC(=O)c1nn2c3c(cc(-c4cnc(C)nc4)cc13)CC=CCC[C@H](C)C(=O)N(C)C[C@@]13C[C@@H](C(=O)Nc4nc(C(F)(F)F)ccc4C)N(C(=O)C2)[C@@H]1C3 [Compound T-243] has IC50 of < 1000 nM

Per the record, CC(=O)c1cc2n(n1)CC(=O)N1[C@@H](C[C@@]3(C)C[C@@H]13)C(=O)Nc1nc(Br)ccc1COC/C=C\CCNC2=O [Compound T-15] has IC50 of > 10000 nM

Per the record, CC(=O)c1nn(CC(=O)N2[C@H]3C[C@@]4(COCC=CCOCc5ccc(Br)nc5NC3=O)C[C@@H]24)c2c(C)cccc12 [Compound T-12] has IC50 of < 1000 nM

Per the record, CC(=O)c1nn2c3c(cc(-c4cnc(C)nc4)cc13)CCCCCCC(=O)NC[C@@]13C[C@@H](C(=O)NCC(F)=C(C)C)N(C(=O)C2)[C@@H]1C3 [Compound T-198] has IC50 of < 1000 nM

###

pIC50 values recorded for Human Factor D (Homo sapiens (Human), UniProt P00746)
pIC50: −log10 of the molar value.

smiles.input	obs.value
CC(=O)c1nn(CC(=O)N2C[C@@]3(F)COCCCCOCc4ccc(Br)nc4NC(=O)[C@@H]2C3)c2ccc(-c3cnc(C)nc3)cc12	> 6.00

Per the record, CC(=O)c1nn(CC(=O)N2[C@H]3C[C@]4(C[C@@H]24)CN(C)CCCCC=CCc2ccc(Br)nc2NC3=O)c2c(CF)cc(-c3cnc(C)nc3)cc12 has pIC50 of > 6.00

Per the record, CC(=O)c1nn(CC(=O)N2[C@H]3C[C@@]4(COCC=CCOCc5ccc(Br)nc5NC3=O)C[C@@H]24)c2c(C)cc(-c3cnc(C)nc3)cc12 has pIC50 of > 6.00

Per the record, CC(=O)c1nn(CC(=O)N2C[C@@]3(F)COCCCCCCCCc4ccc(Br)nc4NC(=O)[C@@H]2C3)c2ccc(-c3cnc(C)nc3)cc12 has pIC50 of > 6.00

Source of measurements: patent US11053253B2
